These measurements were taken from ChEMBL document CHEMBL1201862.

System: RXF 393
Experiment: NCI tumour cell line growth inhibition, 48 h
The source made the active and inactive calls. No stated cut-off is given here; in the data, active = GI50 up to about 1.1 µM and inactive = higher.
Hello, when you answer, please use one of the following outcomes: Y (active), N (inactive)

CCC(=O)CC(=O)CCC(=O)Nc1cc(C)ccc1C : N
CC(C)=CCC[C@@H](C)[C@H]1CC[C@@]2(C)[C@@H]3CC[C@H]4C(C)(C)[C@@H](O)CC[C@@]45C[C@@]35CC[C@]12C : N
O=C(c1ccc(Cl)cc1)N(C(=S)N1CCN(c2ccccn2)CC1)c1ccccc1 : N
CC1CCc2sc3nc(S)n(C)c(=O)c3c2C1 (centres undefined) : N

Ask: Could you please tell me the result logged for N#CCOc1ccc(/C=C/C(=O)c2ccc(Cl)cc2)cc1 in this assay?
Reply: N

Ask: Assay result, entry C[C@@H]1CC[C@@]2(C)C(C(=O)O)=CCCC2[C@@]1(C)CC(=O)c1ccoc1 (some centres undefined) — outcome?
Reply: N

Ask: Look up the recorded call for N#CC1(C#N)C(C#N)(C#N)C1(C#N)C(N)=O in this test.
Reply: N

Ask: Recorded test call requested for c1ccc2c(c1)CCCC/C2=N/OCC1CO1 (centres undefined)
Reply: N

Ask: Record lookup: outcome of this test for COC(=O)C(=O)Cc1nc2ccccc2o1 ?
Reply: N

Ask: How was O=c1[nH]nc(Cc2ccc(Cl)cc2)n1/N=C/c1ccc([N+](=O)[O-])o1 classified in this test?
Reply: N

---

Test system: U-251
Assay: NCI tumour cell line growth inhibition, 48 h
The source made the active and inactive calls. Rule as the data show it: active = GI50 up to about 1.1 µM and inactive = higher.
# reported GI50; entries follow

Nc1cc(CO)cc(Nc2c3ccccc3nc3occc23)c1 : 45.9 µM (inactive)
CN(C)c1ccc(-c2ccc(N(C)C)c3n[se]nc23)c2n[se]nc12 : > 100 µM (inactive)
Cc1ccc(OCCn2cc(Nc3ccccc3)c(=O)n(CCOc3ccc(C)cc3)c2=O)cc1 : 51.6 µM (inactive)

Ask: Write down GI50 measured for item Nc1ncnc2c1ncn2[C@H]1CC[C@@H](NO)C1
Reply: > 100 µM (inactive)

Ask: Specify measured GI50 for COc1cc2c([C@@H](OC(=O)c3ccccc3)c3ccc4c(c3)OCO4)nccc2c(OC)c1OC .
Reply: 61.7 µM (inactive)

Ask: Specify reported GI50 for the compound shown: O=[N+]([O-])c1ccccc1S(=O)(=O)c1cc(O)cc2c1NCCC2
Reply: 20.2 µM (inactive)

Ask: Give GI50 for the following compound: O=C(c1ccco1)n1c2ccc(Br)cc2c2nc3ccccc3nc21
Reply: 40.8 µM (inactive)

Ask: Identify GI50 associated with the compound NCC(NC(=O)OCc1ccccc1)C(=O)O (stereo unspecified)
Reply: > 50 µM (inactive)

Ask: # return recorded GI50 for entry COc1ccc2nc3c([N+](=O)[O-])ccc4c3c(c2c1)N=CN4CCN(C)C
Reply: 5.07 µM (inactive)

Ask: Supply recorded GI50 for CCOC(=O)/C=C\c1c(Cl)n(-c2ccccc2)c(=O)n(-c2ccccc2)c1=O here.
Reply: 32 µM (inactive)

Ask: Using the record for COCc1nc2c(OC)c(-c3nc4ccc(N5CCN(C)CC5)cc4[nH]3)cc(OC)c2[nH]1 , state its measured GI50.
Reply: 42 µM (inactive)

Ask: Given CC1=C2C(=O)O[C@@H](c3ccoc3)[C@]2(C)CCC1=O [FRAXINELLONONE] , respond with its GI50.
Reply: > 100 µM (inactive)

Ask: Kindly indicate its recorded GI50. Item: CC1CCc2sc3nc(S)n(C)c(=O)c3c2C1 (stereo unspecified)
Reply: 41.8 µM (inactive)

Ask: Using known records, supply GI50 for CC1(C)CC(=O)C(=CNC(=S)c2ccccc2)C(=O)C1
Reply: > 100 µM (inactive)

Ask: Respond only with GI50 recorded for CCc1ccccc1NC(=O)C1=C(C)NC(C)=C(C(=O)Nc2c(CC)cccc2CC)C1c1ccc2c(c1)OCO2 (stereo unspecified)
Reply: 14.6 µM (inactive)

Ask: Query GI50 for CCOC(=O)c1cc(C2CCN(Cc3ccccc3)C2=S)c(C(=O)C=[N+]=[N-])[nH]1 (stereo unspecified)
Reply: 25.3 µM (inactive)

Ask: Supply recorded GI50 for CCOC(=O)/C(=C/c1cccc(C#N)c1)N(CC)CC here.
Reply: > 100 µM (inactive)

Ask: Return value of GI50 for input Cc1ccc(Cl)c2c(=O)cc(-c3ccccc3)[nH]c12 , no commentary.
Reply: 88.5 µM (inactive)

Ask: For CN(C)CCNC(=O)c1ccc(Cl)c2c(Nc3ccc(S(N)(=O)=O)cc3)c3ccccc3nc12 , write its GI50.
Reply: 2.16 µM (inactive)

Ask: Write down GI50 measured for item COC(=O)CCCc1ccc2c(c1)CC1(C2)Cc2cc3c(cc2C1)CCCC3
Reply: 40.5 µM (inactive)

Ask: Hello, please tell me recorded GI50 for this one: C[C@@]12[C@H]3CC[C@@H]1[C@H](O)C(=O)N2CC3
Reply: > 100 µM (inactive)
